System: M14 melanoma
METHOD DESCRIPTION: NCI tumour cell line growth inhibition, 48 h; in the data active = GI50 below about 0.43 µM; inactive = the rest
Outcomes: Y for active, N for inactive

                                   molecule  classification
0         CCOC(=O)Nc1ccc2nc(N3CCCCCC3)sc2c1               N
1  Nc1nc(=S)c2ncn(C3OC(CO)C(O)C3O)c2[nH]1 (stereo not drawn)               Y
2  COc1ccc(CN2C(=O)/C(=C\C(=O)c3ccc(OCCN4CCCC4)cc3)c3ccccc32)cc1               N

###

Each entry below carries its recorded TGI.
Test system: 786-0 renal
METHOD DESCRIPTION: NCI tumour cell line growth inhibition, 48 h
Where a SMILES comes first, the peptide text is derived from it. The star is where a group is joined. Boc = CC(C)(C)OC(=O)*
RECORDED METRIC: TGI

                                   compound  data_value
0  CC(NC(=O)C1CCCN1C(=O)CNC(=O)OC(C)(C)C)C(=O)O (stereo not drawn) (Boc-Gly-Pro-Ala-OH; configuration not given here)    > 100 µM
1  O=C(c1cc(Cl)cc(Cl)c1)N(Cc1cccnc1)C(=S)N(Cc1cccnc1)C(=O)c1cc(Cl)cc(Cl)c1     73.8 µM
2  CC(=O)NNc1nc(C)c(C(/C=C/c2ccc(Cl)cc2)=N\N=C(N)N)s1    > 100 µM
3  CN1CN(c2ccccc2)C2(CCN(C3Nc4ccccc4O3)CC2)C1=O (centres undefined)     49.6 µM
4   Cc1ccc(S(=O)(=O)NN=C2C(C)(C)CC2(C)C)cc1    > 100 µM
5  O=c1c2ccccc2nc2n1CCc1c-2[nH]c2cc3c(cc12)OCO3     7.69 µM
6           O=c1ccn(Cc2ccccc2CCl)c(=O)[nH]1       38 µM
7  COC(=O)[C@H](C)NC(=O)C1(CNC(=O)[C@H](C)NC(=O)OC(C)(C)C)Cc2ccccc2-c2ccccc2C1     36.4 µM
8  Clc1ccc(OCc2nnc3sc(SSc4nn5c(COc6ccc(Cl)cc6)nnc5s4)nn23)cc1    > 100 µM
